In what follows, each item is paired with its pKi for hM3 muscarinic receptor subtype (Homo sapiens).
pKi: −log10 of the molar value.
PROPERTY LABEL: pKi

INSERT INTO measurements (compound, reported) VALUES
  ('C[N+](C)(CCc1cccc(O)c1)C1CCN(C(=O)[C@](O)(c2ccccc2)C2CCCC2)CC1 [Example 2]', '> 9.00'),
  ('C[N+](C)(CCc1ccccc1)C1CCN(C(=O)[C@](O)(c2ccccc2)C2CCCC2)CC1 [Example 1]', '> 9.00');
